Test system: HT-29 human colon cancer cells
Assay: In vitro biological activity assay: inhibition of TNFα/SmacM/Z_VAD FMK-induced programmed necrosis, CellTiter-Glo viability
Format: cell-based
Conditions: HT-29 cells, necrosis induced with TNF-α 100 ng/mL, SmacM 100 nM, Z_VAD-FMK 10 μM, overnight, cell viability by chemiluminescence
VALUE_TYPE: EC50

- MOLECULE: "Nc1ncc(C#Cc2cncc(-n3nc4c(c3Cl)CCC4c3ccccc3)c2)cn1 (stereo not shown)"
  TESTED_SYSTEM: "HT-29 human colon cancer cells"
  OBSERVED: "≤ 0.1 µM"
- MOLECULE: "Nc1ncc(C#Cc2cncc(-n3cc4c(n3)C(c3ccccc3)CC4)n2)cn1 (stereo not shown)"
  TESTED_SYSTEM: "HT-29 human colon cancer cells"
  OBSERVED: "≤ 0.1 µM"
- MOLECULE: "C(#Cc1cncc(-n2cc3c(n2)C(c2ccccc2)CC3)c1)c1ccccc1 (stereo not shown)"
  TESTED_SYSTEM: "HT-29 human colon cancer cells"
  OBSERVED: "> 1 µM"
- MOLECULE: "Nc1ncc(C#Cc2cccc(-n3cc4c(n3)C(c3ccccc3)CC4)c2)cn1 (stereo not shown)"
  TESTED_SYSTEM: "HT-29 human colon cancer cells"
  OBSERVED: "≤ 0.1 µM"

====

Experiment: Rapid brain distribution assay (LC-MS/MS, brain tissue/plasma ratio)
Type: in vivo
Settings: mouse, ip, CD1 mice, intraperitoneal, grouped compounds, brain tissue and plasma taken one hour after administration, read-out: B/P
Each entry below lists one item and its recorded Kp at 1 h value.
VALUE_TYPE: Kp at 1 h

- COMPOUND: "Nc1ncc(C#Cc2ccnc(-n3cc4c(n3)C(c3ccccc3)CC4)c2)cn1 (stereo not shown) [Compound 28]"
  VALUE_TYPE: "Kp at 1 h"
  OBSERVED: 1.91
- COMPOUND: "Nc1ncc(C#Cc2cncc(-n3nc4n(c3=O)CCC4c3ccccc3)c2)cn1 (stereo not shown) [Compound 52]"
  VALUE_TYPE: "Kp at 1 h"
  OBSERVED: 1.1
- COMPOUND: "Nc1ncc(C#Cc2cncc(-n3cc4c(n3)[C@H](c3ccccc3)CC4)c2)s1 [Compound 31]"
  VALUE_TYPE: "Kp at 1 h"
  OBSERVED: 2.38
- COMPOUND: "Nc1ncc(C#Cc2cncc(-n3cc4c(n3)C(c3ccccc3)OC4)c2)cn1 (stereo not shown) [Compound 51]"
  VALUE_TYPE: "Kp at 1 h"
  OBSERVED: 2.46
- COMPOUND: "Nc1ncc(C#Cc2cncc(-n3nc4c(n3)C(C3CCCCC3)CC4)c2)cn1 (stereo not shown) [Compound 2]"
  VALUE_TYPE: "Kp at 1 h"
  OBSERVED: 0.62
- COMPOUND: "Cc1ncc(C#Cc2cccc(-n3cc4c(n3)C(c3ccccc3)CC4)c2)n1C (stereo not shown) [Compound 24]"
  VALUE_TYPE: "Kp at 1 h"
  OBSERVED: 1.33
- COMPOUND: "Nc1ncc(C#Cc2cncc(-n3nc4c(n3)[C@@H](c3ccccc3)CC4)c2)cn1 [Compound 56]"
  VALUE_TYPE: "Kp at 1 h"
  OBSERVED: 1.2
- COMPOUND: "Cn1c(-n2nc3c(n2)C(c2ccccc2)CC3)cc(C#Cc2cnc(N)nc2)cc1=O (stereo not shown) [Compound 57]"
  VALUE_TYPE: "Kp at 1 h"
  OBSERVED: 2.16
- COMPOUND: "Cn1c(-n2nc3c(n2)C(c2cccnc2)CC3)cc(C#Cc2cnc(N)nc2)cc1=O (stereo not shown) [Compound 62]"
  VALUE_TYPE: "Kp at 1 h"
  OBSERVED: 0.388
- COMPOUND: "Cc1ncc(C#Cc2cnc(N)nc2)cc1-n1cc2c(n1)C(c1ccccc1)CC2 (stereo not shown) [Compound 42]"
  VALUE_TYPE: "Kp at 1 h"
  OBSERVED: 2.45
- COMPOUND: "Cc1ncc(C#Cc2cnc(N)nc2)cc1-n1nc2c(n1)C(c1ccccc1)CC2 (stereo not shown) [Compound 58]"
  VALUE_TYPE: "Kp at 1 h"
  OBSERVED: 2.93
- COMPOUND: "Oc1ccc(C#Cc2cncc(-n3cc4c(n3)C(c3ccccc3)CC4)c2)nn1 (stereo not shown) [Compound 11]"
  VALUE_TYPE: "Kp at 1 h"
  OBSERVED: 1.23
- COMPOUND: "Nc1ncc(C#Cc2cncc(-n3cc4c(n3)[C@H](c3ccccc3)CC4)c2)cn1 [Compound 14]"
  VALUE_TYPE: "Kp at 1 h"
  OBSERVED: 2.92
